Quick list: MIC per entry.
system: Staphylococcus aureus NRS2 (ATCC700698); assay: MIC panel of challenge pathogens (CLSI); assay type: cell-based; conditions: Staphylococcus aureus NRS2 (ATCC700698); read-out: 100% inhibition
# output: bare number, implied unit µg/mL

Past entries and their recorded results:
molecule=CCCCc1cccc(-c2cc(-c3nnn[nH]3)sc2Cc2ccc(Cl)cc2)c1 numeric_readout=0.5
molecule=Fc1ccc(-c2cc(-c3nnn[nH]3)sc2-c2ccc(F)c3ccccc23)c2ccccc12 numeric_readout=1
molecule=Cc1cc(Cl)ccc1-c1cc(-c2nnn[nH]2)sc1-c1ccc(C)c2ccccc12 numeric_readout=0.5

Measured MIC of `Clc1ccc(-c2cc(-c3nnn[nH]3)sc2-c2ccc(Cl)cc2)cc1` : 2

Noted for `Clc1ccc(Cc2sc(-c3nnn[nH]3)cc2-c2cccc(CC3CCCC3)c2)cc1` : its MIC reads 0.5

Briefly, MIC measured for `Cc1ccc(Cl)cc1-c1cc(-c2nnn[nH]2)sc1-c1cc(Cl)ccc1C` : 1

MIC reading for `CC(C)c1cc(Cl)ccc1-c1cc(-c2nnn[nH]2)sc1-c1ccc(Cl)cc1C(C)C` : 0.5

Per the records, this molecule ( `CC(C)c1cc(Cl)ccc1-c1cc(C(=O)O)sc1-c1ccc(Cl)cc1C(C)C` ) has MIC equal to 0.5

The recorded MIC for `Cc1cc(Cl)ccc1-c1cc(-c2nnn[nH]2)sc1-c1ccc(Cl)cc1C` is 0.5

---

tested on: Staphylococcus aureus AUR59 7005; assay: MIC panel of challenge pathogens (CLSI); format: cell-based; settings: AUR597005; Staphylococcus aureus AUR59 7005; read-out: MIC50 (50%)
Reported MIC50 values for a set of compounds
Note: unit µg/mL is implicit; provide only the numeric part.

Example compounds with recorded MIC50:
molecule=CC(C)c1cc(Cl)ccc1-c1cc(C(=O)O)sc1-c1ccc(Cl)cc1C(C)C recorded_metric=MIC50 numeric_readout=0.25
molecule=Cc1ccc(Cl)cc1-c1cc(-c2nnn[nH]2)sc1-c1cc(Cl)ccc1C recorded_metric=MIC50 numeric_readout=1
molecule=CC(C)c1cc(Cl)ccc1-c1cc(-c2nnn[nH]2)sc1-c1ccc(Cl)cc1C(C)C recorded_metric=MIC50 numeric_readout=0.5

Value of MIC50 reported for the compound `CCCCc1cccc(-c2cc(-c3nnn[nH]3)sc2Cc2ccc(Cl)cc2)c1` is 0.5

MIC50 in this record for `Cc1cc(Cl)ccc1-c1cc(-c2nnn[nH]2)sc1-c1ccc(C)c2ccccc12` : 0.5

---

Overview of reported activity at 50 µM across a group of molecules:
target: AcpS enzyme (Escherichia coli, UniProt P24224); assay: Measurement of AcpS inhibition ([3H]acetyl-CoA incorporation into apo-ACP); assay type: biochemical; conditions: test compound 50 uM; % activity vs blank-subtracted counts
Sequence (P24224 whole entry): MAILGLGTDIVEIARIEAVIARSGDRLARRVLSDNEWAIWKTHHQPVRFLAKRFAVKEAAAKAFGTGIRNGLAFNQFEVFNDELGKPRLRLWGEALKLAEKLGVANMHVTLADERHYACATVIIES
Please state the value followed by its unit.

Example molecules with recorded activity at 50 µM:
molecule=Cc1ccc(-c2cc(-c3nnn[nH]3)sc2-c2ccc(C)cc2Cl)c(Cl)c1 recorded_metric="activity at 50 µM" result=15.1%
molecule=Cc1ccccc1-c1cc(-c2nnn[nH]2)sc1-c1ccccc1C recorded_metric="activity at 50 µM" result=96.8%
molecule=c1ccc(-c2ccccc2-c2cc(-c3nnn[nH]3)sc2-c2ccccc2-c2ccccc2)cc1 recorded_metric="activity at 50 µM" result=17.9%
molecule=Cc1ccc(-c2cc(-c3nnn[nH]3)sc2-c2ccc(C)c(Cl)c2)cc1Cl recorded_metric="activity at 50 µM" result=7.33%

In plain terms, `Cc1ccc(-c2cc(-c3ccc(Cl)cc3)cc(-c3nnn[nH]3)c2)c2ccccc12` has a documented activity at 50 µM of 7.35%

---

target: AcpS enzyme (Escherichia coli); test: Measurement of AcpS inhibition ([3H]acetyl-CoA incorporation into apo-ACP); type: biochemical; settings: test compound 500 uM; % activity vs blank-subtracted counts
Form field: remaining activity at 500 µM (one value per entry).
Return type: number; implicit unit %.

molecule=Clc1ccc(-c2cc(-c3nnn[nH]3)sc2-c2ccc(Cl)cc2)cc1 output_unit=% numeric_readout=0.08
molecule=Cc1ccc(-c2cc(-c3nnn[nH]3)sc2-c2ccc(C)c(Cl)c2)cc1Cl output_unit=% numeric_readout=0.16
molecule=Clc1ccccc1-c1cc(-c2nnn[nH]2)sc1-c1ccccc1Cl output_unit=% numeric_readout=0.58
molecule=Cc1ccc(-c2cc(-c3nnn[nH]3)sc2-c2ccc(C)c(C)c2)cc1C output_unit=% numeric_readout=0.2

Value (remaining activity at 500 µM, AcpS enzyme (Escherichia coli)) for record `c1ccc(-c2cc(-c3nnn[nH]3)sc2-c2ccccc2-c2ccoc2)c(-c2ccoc2)c1` = 0.06

Response field remaining activity at 500 µM (AcpS enzyme (Escherichia coli)) for item `Cc1ccc(-c2cc(-c3nnn[nH]3)sc2-c2ccc(C)cc2Cl)c(Cl)c1` : 0.56

---

tested on: Staphylococcus aureus EUP MRSA002; test: MIC panel of challenge pathogens (CLSI), EUP MRSA002; assay type: cell-based; details: EUPMRSA002; Staphylococcus aureus EUP MRSA002; read-out: MIC80 (80%)
Measured MIC80 accompanies every entry in the list below.

Worked cases, MIC80 given:
compound="CC(C)c1cc(Cl)ccc1-c1cc(-c2nnn[nH]2)sc1-c1ccc(Cl)cc1C(C)C [DNM0548]" result="≤ 0.25 µg/mL"
compound="CC(C)c1cc(Cl)ccc1-c1cc(C(=O)O)sc1-c1ccc(Cl)cc1C(C)C [DNM0566]" result="≤ 0.25 µg/mL"

// compound CCCCc1cccc(-c2cc(-c3nnn[nH]3)sc2Cc2ccc(Cl)cc2)c1 [DNM0606] , assay Staphylococcus aureus EUP MRSA002, MIC80 value: ≤ 0.25 µg/mL

---

Listed compounds paired with reported MIC
test system: Staphylococcus aureus EUP MRSA002; test: MIC panel of challenge pathogens (CLSI), EUP MRSA002; type: cell-based; settings: EUPMRSA002; Staphylococcus aureus EUP MRSA002; read-out: 100% inhibition

For CC(C)c1cc(Cl)ccc1-c1cc(C(=O)O)sc1-c1ccc(Cl)cc1C(C)C [DNM0566] the compound record lists MIC as ≤ 0.25 µg/mL

Kindly note the recorded MIC for CC(C)c1cc(Cl)ccc1-c1cc(-c2nnn[nH]2)sc1-c1ccc(Cl)cc1C(C)C [DNM0548] , which is ≤ 0.25 µg/mL

Reported MIC of CCCCc1cccc(-c2cc(-c3nnn[nH]3)sc2Cc2ccc(Cl)cc2)c1 [DNM0606] : ≤ 0.25 µg/mL

---

target: UniProt P24224; experiment: Measurement of AcpS inhibition ([3H]acetyl-CoA incorporation into apo-ACP); assay type: biochemical; details: test compound 50 uM; % activity vs blank-subtracted counts
Reported activity at 50 µM values for the following compounds.
Your reply should be a number followed by the unit it is expressed in.

molecule=c1ccc(Oc2ccccc2-c2cc(-c3nnn[nH]3)sc2-c2ccccc2Oc2ccccc2)cc1 result=8.25%

Kindly note the recorded activity at 50 µM for `Cc1cc(Cl)ccc1-c1cc(-c2nnn[nH]2)sc1-c1ccc(C)c2ccccc12` , which is 5.88%

Reported activity at 50 µM of `COc1c(C)cc(-c2cc(-c3nnn[nH]3)sc2-c2cc(C)c(OC)c(C)c2)cc1C` : 47.6%

`CC(C)c1cc(Cl)ccc1-c1cc(-c2nnn[nH]2)sc1-c1ccc(Cl)cc1C(C)C` has a reported activity at 50 µM of 3.1%

Looking up `Fc1ccc(-c2cc(-c3nnn[nH]3)sc2-c2ccc(F)c3ccccc23)c2ccccc12` , I see its activity at 50 µM listed as 1.28%
